Assay: chemical genetic growth profiling, strain panel (AID 1159580);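 further: tested at 20 µM; growth read once vehicle control cultures reached saturation at 30 °C; 1 = growth at the plate median or of vehicle wells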
Details: S. cerevisiae deletion strains, growth OD, locus YBR231C, strain swc5
The campaign covered roughly 5,500 compounds. About 2,000 (36%) were called active. About 18% were inconclusive and are not listed. No stated cut-off is given here; in the data, active means normalized growth mostly below about 0.91 (no sharp cut-off); inconclusive means no clear call, values can overlap the other calls; inactive means mostly above about 0.92. The list shows a part of the results.
Pick one and only one: active, inactive

Use the examples below as a reference point.
* C=CCSCC=C | inactive
* CC(C)c1cccc(O)c(=O)c1 | active
* NC(=O)c1cc([N+](=O)[O-])cc([N+](=O)[O-])c1 | inactive

Per the records of this test, what outcome belongs to CC(=O)Oc1ccccc1C(=O)Oc1ccccc1C(=O)O ?
inactive

Outcome logged for CC1(C)S[C@@H]2[C@H](NC(=O)[C@@H](N)c3ccc(O)cc3)C(=O)N2[C@H]1C(=O)O in this assay:
inactive

Assay outcome for COc1ccc(-c2cc(=O)c3c(OC)c(OC)c(OC)c(OC)c3o2)cc1OC : what was it?
inactive

---

Test: chemical genetic growth profiling, strain panel (AID 1159580);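 further: tested at 20 µM; growth read once vehicle control cultures reached saturation at 30 °C; 1 = growth at the plate median or of vehicle wells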
Conditions: S. cerevisiae deletion strains, growth OD, locus YKL067W, strain YNK1, active compounds read low
The whole screen tested about 5,500 compounds, of which about 2,000 (36%) were called active. Not shown: some 18% with an inconclusive outcome. Some of the results follow.
Strictly below 0.9 in normalized growth: rule met. Otherwise: rule not met.

Below are worked cases with known answers.
• O=C(Nc1ccc(SC(F)(F)F)cc1)Nc1ccc(Oc2cccc(C(F)(F)F)c2)nc1 = rule not met
• O=C1Nc2ccccc2/C1=C\c1cccc2ccccc12 = rule met
• O=C(O/N=C1/CCCc2[nH]c3ccccc3c21)c1ccc(Cl)cc1Cl = rule not met
• CC(C)(C)NC(=S)N/N=C\c1cc(Br)c(O)c(Br)c1 = rule not met
• O=C(Nc1ccccc1C(=O)O)OCC1c2ccccc2-c2ccccc21 = rule met

Lab log: compare recorded normalized growth with 0.9; is it strictly lower for CCn1nc(C)cc1C(=O)Sc1cccc(Br)c1 ?
rule met

Input CCCCCCCCCCCCSc1ncn[nH]1 ; condition: normalized growth strictly below 0.9. Does it hold?
rule met

Record ONC(=Nc1ccccc1Cl)c1ccccc1Cl : is its normalized growth strictly below 0.9?
rule met

Is it true that normalized growth reported for O=C(Nc1cc2ccccc2s1)N1CCN(Cc2c(F)cccc2Cl)CC1 is less than 0.9?
rule not met

Is normalized growth of O=C(NNc1cc(C(F)(F)F)cc(C(F)(F)F)c1)c1cnc2n(c1=O)CCS2 strictly below 0.9?
rule not met

---

Experiment: chemical genetic growth profiling, strain panel (AID 1159580);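 further: tested at 20 µM; growth read once vehicle control cultures reached saturation at 30 °C; 1 = growth at the plate median or of vehicle wells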
Conditions: S. cerevisiae deletion strains, growth OD, locus YKR091W, strain srl3, active compounds read low
In all, about 5,500 compounds went through this assay and about 2,000 (36%) were called active. Another 18% or so got no clear call; they are omitted. The list shows a part of the results.
quantity: normalized growth
// no unit string in output, number only

The following compounds have reported results that may help.
- CCC(=O)OCC(=O)C1(OC(=O)CC)C(C)CC2C3CCC4=CC(=O)C=CC4(C)C3(Cl)C(O)CC21C (stereo unspecified): 0.983
- NCCCN: 0.998
- COc1ccc(-c2cc(=O)c3c(O)cc(O)cc3o2)cc1: 0.997

For record NCC(O)CC(=O)O (stereo unspecified) the listed normalized growth is 0.974

---

Assay: chemical genetic growth profiling, strain panel (AID 1159580);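 further: tested at 20 µM; growth read once vehicle control cultures reached saturation at 30 °C; 1 = growth at the plate median or of vehicle wells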
Settings: S. cerevisiae deletion strains, growth OD, locus YLR058C, strain SHM2 (second series), active compounds read low
Among all 5,500 compounds or so, about 2,000 (36%) were called active. Roughly 18% stayed inconclusive and do not appear here. The list shows a part of the results.
Below, each entry is listed with its recorded normalized growth.
Answer with a number only.

- O=[N+]([O-])c1cccnc1Oc1ccc(Cl)cc1: 0.95
- CC(=O)c1ccccc1OC(=O)c1c(-c2c(Cl)cccc2Cl)noc1C: 1
- CCOC(=O)c1cnc2n(c1=O)CCS2: 0.995
- O=C(Nc1ccc(OC(F)(F)F)cc1)Nc1cccc(C(=O)O)c1: 1.01

Documented normalized growth of COc1ccccc1NC(=S)NCCC(=O)O : 1.01

CC(=O)C1=C(C)Nc2ccccc2S1 has a reported normalized growth of 0.987

Entry COc1ccc(Br)c(-c2nnc(-c3ccccc3[N+](=O)[O-])o2)c1 ; normalized growth = 1.02

Reported normalized growth for Cn1c2c(c3ccccc31)/C(=N\OC(=O)c1ccc(Cl)cc1Cl)CCC2 was 1.02

normalized growth reported for this compound O=[N+]([O-])c1ccc(Oc2c(Cl)cccc2Cl)c(Cl)c1Oc1c(Cl)cccc1Cl : 0.991

Lookup result for COC(=O)Cc1cc(OC)c(OC)cc1[N+](=O)[O-] ; measured normalized growth: 0.991

Looking up O=C(O/N=C1/CCCc2[nH]c3ccccc3c21)c1ccc(Cl)cc1Cl , I found its normalized growth recorded as 0.971
